Molecular target: T1, CRBN, Q96SW2;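 note: pooled lentiviral library of zinc finger degron-EGFP fusions in mCherry-positive Jurkat cells, FACS-sorted after compound exposure, with degron abundance counted by next-generation sequencing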
T1 chain: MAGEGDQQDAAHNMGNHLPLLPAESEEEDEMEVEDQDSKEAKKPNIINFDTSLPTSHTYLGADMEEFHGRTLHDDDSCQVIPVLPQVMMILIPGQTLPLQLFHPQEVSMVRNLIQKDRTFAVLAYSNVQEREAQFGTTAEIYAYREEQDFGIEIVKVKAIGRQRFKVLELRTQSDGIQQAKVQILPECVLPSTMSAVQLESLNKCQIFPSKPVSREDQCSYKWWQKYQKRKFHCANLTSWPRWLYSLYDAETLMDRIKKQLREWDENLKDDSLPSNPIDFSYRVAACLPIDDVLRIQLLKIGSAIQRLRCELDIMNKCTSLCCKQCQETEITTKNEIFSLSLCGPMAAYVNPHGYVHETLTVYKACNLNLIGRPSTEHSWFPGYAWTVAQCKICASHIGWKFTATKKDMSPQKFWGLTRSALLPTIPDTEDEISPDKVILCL
Experiment: log2 fold change of degron read counts, EGFP-low vs EGFP+ sorted cells (limma voom), compound-induced degradation; higher = more compound-induced degradation of the degron-EGFP fusion; degrons are variants of IKZF1/3 zinc finger 2; compound dose not given here
Details: Jurkat; 18 h; compound: compound 33 (diphenyl IMiD analogue)
Over roughly 8,300 sequences, “log2 fold change of degron read counts, EGFP-low vs EGFP+ sorted cells (limma voom), compound-induced degradation” has its median near -1.1; the highest 2% begin near 3.2. This is one part of a sample in which the highest values are shown more often than they occur.
Label class 0 if log2 fold change of degron read counts falls below 2; label class 1 in every other case.

{"MACROMOLECULE SEQUENCE": "LVCEICGFCCTQKGNLLRHIKL [46L_47V_49E_50I_52G_53F_54C_55C_67L_, Q9UKT9]", "ASSIGNED CATEGORY": "class 0"}
{"MACROMOLECULE SEQUENCE": "LDCEICGFCCTQKGNLLRHIKL [46L_47D_49E_50I_52G_53F_54C_55C_67L_, Q9UKT9]", "ASSIGNED CATEGORY": "class 0"}
{"MACROMOLECULE SEQUENCE": "FFCEVCGANFTQKGNLLRHIKL [46F_47F_49E_50V_52G_53A_54N_55F_67L_, Q9UKT9]", "ASSIGNED CATEGORY": "class 0"}
{"MACROMOLECULE SEQUENCE": "LNCEICGFCCTQKGNLLRHIKL [46L_47N_49E_50I_52G_53F_54C_55C_67L_, Q9UKT9]", "ASSIGNED CATEGORY": "class 0"}
{"MACROMOLECULE SEQUENCE": "LWCEICGFCCTQKGNLLRHIKL [46L_47W_49E_50I_52G_53F_54C_55C_67L_, Q9UKT9]", "ASSIGNED CATEGORY": "class 1"}

Source listed as the supplement of paper PMC12645437.
